Listed next: entries and their corresponding % Inhibition (FS).
- system_name: β-secretase (BACE) (Homo sapiens)
- Construct: purchased Panvera
- protocol_description: BACE FS1 % Inhibition Assay
- Format: biochemical
- particulars: 3 μM test compound
Expressed in %, but write only the number.

Consider the following illustrative entries.
NC1=Nc2ccc(Oc3ccccc3)cc2CN1C(CNC(=O)C12CC3CC(CC(C3)C1)C2)C1CCCCC1 (stereo not shown)    115
NC1=Nc2ccc(Oc3ccccc3)cc2CN1CCC(=O)N(C1CCCCC1)C1CCCCC1    77
NC1=Nc2ccc(Oc3ccccc3)cc2CN1C(c1ccccc1)c1cccc(C(=O)N(C2CCCCC2)C2CCCCC2)c1 (stereo not shown)    54
CC(C)(C)OC(=O)N1CCCCC(N2Cc3cc(Oc4ccccc4)ccc3N=C2N)C1 (stereo not shown)    37
CC(C)c1ccccc1Oc1ccc2c(c1)CN(CCC(=O)NC1C3CC4CC(C3)CC1C4)C(N)=N2 (stereo not shown)    53
CNC(=O)c1ccccc1Sc1ccc2c(c1)CN(Cc1cccc(C(=O)N(C)C3CCCCC3)c1)C(N)=N2    −3
NC1=Nc2ccc(Oc3ccccc3)cc2CN1C1CCN(C(=O)C2CCCCC2)C1 (stereo not shown)    42
CC1CCC(N(C(=O)c2cccc(CN3Cc4cc(Oc5ccccc5)ccc4N=C3N)c2)C2CCC(C)CC2)CC1 (stereo not shown)    39

Please respond with reported % Inhibition (FS) (system β-secretase (BACE) (Homo sapiens)) for CC(C)[C@@H](CNC(=O)C12CC3CC(CC(C3)C1)C2)N1Cc2cc(Oc3ccccc3)ccc2N=C1N .
49

Name the value of % Inhibition (FS) reported for CN(C(=O)c1cccc(CN2Cc3cc(Oc4ccccc4-n4cccc4)ccc3N=C2N)c1)C1CCCCC1 when tested on β-secretase (BACE) (Homo sapiens).
38

Name the recorded % Inhibition (FS) of CCCC(CCCC(=O)N(C)C1CCCCC1)N1Cc2cc(Oc3ccccc3)ccc2N=C1N (stereo not shown) , assay system β-secretase (BACE) (Homo sapiens).
106

* * *

- system_name: β-secretase (BACE) (Homo sapiens)
- Construct: purchased Panvera
- protocol_description: BACE FS1 % Inhibition Assay
- Type: biochemical
- particulars: 0.3 μM compound; FS1 substrate
result_type: % Inhibition (FS) (%)
Provide the reading as a plain figure in %.

Answered cases to consult:
NC1=Nc2ccc(-c3ccccc3F)cc2CN1CCNC(=O)CCC(F)(F)F    42
CN(C(=O)CC[C@@H](C1CCCCC1)N1Cc2ccc(Oc3ccccc3)cc2N=C1N)C1CCCCC1    8
NC1=Nc2ccc(Oc3ccccc3)cc2CN1[C@@H](CCC(=O)N[C@@H](COCc1ccccc1)C(=O)O)C1CCOCC1    104
COC(=O)[C@@H](COCc1ccccc1)N(C)C(=O)CC[C@@H](C1CCCCC1)N1Cc2cc(Oc3ccccc3)ccc2N=C1N    102

API: the following record is the query input.
Provide % Inhibition (FS) value for the following molecule: CC(CC(=O)NCCN1Cc2cc(-c3ccccc3Cl)ccc2N=C1N)C(F)(F)F (centres unmarked)
64

* * *

- system_name: β-secretase (BACE) (Homo sapiens, UniProt P56817)
- Construct: purchased Panvera
- Sequence (P56817 46-501): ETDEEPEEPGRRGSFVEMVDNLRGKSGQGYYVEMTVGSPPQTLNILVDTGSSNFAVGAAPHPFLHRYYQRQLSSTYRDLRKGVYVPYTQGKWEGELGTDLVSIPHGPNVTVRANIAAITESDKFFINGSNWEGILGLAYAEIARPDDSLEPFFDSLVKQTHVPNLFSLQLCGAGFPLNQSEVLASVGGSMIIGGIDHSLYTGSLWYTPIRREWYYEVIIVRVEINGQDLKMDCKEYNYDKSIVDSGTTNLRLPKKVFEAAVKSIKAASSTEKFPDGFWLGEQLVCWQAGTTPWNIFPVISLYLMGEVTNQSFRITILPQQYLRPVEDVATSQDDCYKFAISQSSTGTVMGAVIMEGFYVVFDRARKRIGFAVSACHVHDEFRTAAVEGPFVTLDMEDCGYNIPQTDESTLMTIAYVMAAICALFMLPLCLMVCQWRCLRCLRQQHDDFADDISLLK
- protocol_description: BACE FS1 % Inhibition Assay
- Format: biochemical
- particulars: 1 μM compound; FS1 substrate
result_type: % Inhibition (FS) (%)
Form entry: value (%) — number only.

CN(Cc1cccc(CC(=O)O)c1)C(=O)CCC(C1CCCCC1)N1Cc2cc(Oc3ccccc3)ccc2N=C1N (stereo not shown) [Compound 778]    77

Give recorded % Inhibition (FS). NC1=Nc2ccc(-c3ccccc3)cc2CN1CCNC(=O)CCC(F)(F)F [Compound 684]
38

Determine its reported % Inhibition (FS): NC1=Nc2ccc(-c3ccccc3Cl)cc2CN1CCNC(=O)C1CCOCC1 [Compound 689]
82
